tested on: Danio rerio Tg(wt1b:EGFP) embryo, pronephros; test: glomerular width (mean of left and right), fold change vs DMSO control; higher = wider glomerulus; details: 25 µM; exposure: 24-48 hpf
Counter-ions that a name gives are not always drawn.
Classification field: enter Criterion met for glomerular width values not below 1, Criterion not met for values below it.

Incoming: I'd appreciate it if you could say whether C=C1c2cccc(O)c2C(=O)C2=C(O)[C@]3(O)C(=O)C(C(N)=O)=C(O)[C@@H](N(C)C)[C@@H]3[C@@H](O)[C@H]12 [Methacycline hydrochloride] has glomerular width at least equal to 1.
Outgoing: Criterion met

Incoming: I'd appreciate it if you could say whether CC(=O)Oc1cccc2c1C(=O)c1c(OC(C)=O)cc(C(=O)O)cc1C2=O [Diacerein] has glomerular width at least equal to 1.
Outgoing: Criterion met

Incoming: Is the recorded value of glomerular width equal to or greater than 1 for this compound? CN1C(=O)CC(c2ccccc2)C1=O (configuration not stated) [Phensuximide]
Outgoing: Criterion not met

Incoming: Evaluate COc1ccccc1OCC(O)CO (configuration not stated) [Guaifenesin] : glomerular width at minimum 1?
Outgoing: Criterion not met

Incoming: Kindly determine if glomerular width recorded for COc1ccccc1N1CCN(CCCNc2cc(=O)n(C)c(=O)n2C)CC1 [Urapidil hydrochloride] is above or exactly 1.
Outgoing: Criterion not met

Incoming: Tell me whether glomerular width is at least 1 here: C[C@@H](O[C@H]1OCCN(Cc2n[nH]c(=O)[nH]2)[C@H]1c1ccc(F)cc1)c1cc(C(F)(F)F)cc(C(F)(F)F)c1 [Aprepitant]
Outgoing: Criterion met

Incoming: For this compound, is measured glomerular width 1 or higher? C[C@]12C=CC(=O)C=C1CC[C@H]1[C@@H]3C[C@@H](O)[C@](O)(C(=O)CO)[C@@]3(C)C[C@H](O)[C@@]12F [Triamcinolone]
Outgoing: Criterion met

Incoming: Decide: glomerular width of CC(C(=O)O)c1cccc(Oc2ccccc2)c1 (configuration not stated) [Fenoprofen calcium salt dihydrate] >= 1?
Outgoing: Criterion not met

Incoming: Confirm if glomerular width reported for the compound CC[C@H]1OC(=O)[C@H](C)[C@@H](O[C@H]2C[C@@](C)(OC)[C@@H](O)[C@H](C)O2)[C@H](C)[C@@H](O[C@@H]2O[C@H](C)C[C@H](N(C)C)[C@H]2O)[C@](C)(OC)C[C@@H](C)C(=O)[C@H](C)[C@@H](O)[C@]1(C)O [Clarithromycin] is 1 or above.
Outgoing: Criterion not met

Incoming: Tell me whether glomerular width is at least 1 here: CCCCOc1cc(C(=O)OCCN(CC)CC)ccc1N [Benoxinate hydrochloride]
Outgoing: Criterion met

Incoming: Could you please find out whether COc1ccc(-c2cc(=S)ss2)cc1 [Anethole-trithione] has glomerular width that meets 1 or exceeds it?
Outgoing: Criterion not met

Incoming: Does glomerular width meet or surpass 1 for NCCNCCNCCNCCN [Tetraethylenepentamine pentahydrochloride] ?
Outgoing: Criterion met

Incoming: Check this compound for glomerular width at or above 1: CCCN(CCC)S(=O)(=O)c1ccc(C(=O)O)cc1 [Probenecid]
Outgoing: Criterion not met

Incoming: I'd appreciate it if you could say whether C[C@@H](O)[C@H]1C(=O)N2C(C(=O)O)=C(SCCNC=N)C[C@H]12 [Imipenem] has glomerular width at least equal to 1.
Outgoing: Criterion met

Incoming: Does O=C(CCCN1CCN(c2ccccn2)CC1)c1ccc(F)cc1 [Azaperone] have a reported glomerular width of at least 1?
Outgoing: Criterion not met

Incoming: Say whether NCc1ccc(S(N)(=O)=O)cc1 [Mafenide hydrochloride] shows glomerular width of 1 or more.
Outgoing: Criterion met

Incoming: State whether the measured glomerular width reaches 1, counting equality as reaching it, for COc1ccc(C[C@@H]2c3cc(OC)c(OC)cc3CC[N@+]2(C)CCC(=O)OCCCCCOC(=O)CC[N@@+]2(C)CCc3cc(OC)c(OC)cc3[C@H]2Cc2ccc(OC)c(OC)c2)cc1OC [Cisatracurium besylate]
Outgoing: Criterion met

Incoming: Has CN(C)CCCN1c2ccccc2CCc2ccc(Cl)cc21 [Clomipramine hydrochloride] a recorded glomerular width greater than or equal to 1?
Outgoing: Criterion not met

Incoming: glomerular width >= 1 for CCC1NC(=O)c2cc(S(N)(=O)=O)c(Cl)cc2N1 (configuration not stated) [Quinethazone] ?
Outgoing: Criterion met

Incoming: Is glomerular width for CN1C(C(=O)Nc2ccccn2)=C(O)c2ccccc2S1(=O)=O [Piroxicam] at or above 1?
Outgoing: Criterion not met

Incoming: Kindly determine if glomerular width recorded for C#C[C@]1(O)CC[C@H]2[C@@H]3CCC4=Cc5oncc5C[C@]4(C)[C@H]3CC[C@@]21C [Danazol] is above or exactly 1.
Outgoing: Criterion not met

Incoming: Determine whether measured glomerular width meets or exceeds 1 for CC(C)(C(=O)c1cccnc1)c1cccnc1 [Metyrapone]
Outgoing: Criterion not met

* * *

tested on: Danio rerio Tg(wt1b:EGFP) embryo, pronephros; assay: fraction of imaged embryos annotated as normal kidney; higher = less nephrotoxic; extreme values may be limits of the assay; details: 25 µM; exposure: 24-48 hpf
Structures can show the parent of a compound that is named as a salt.
Decision: fraction of imaged embryos annotated as normal kidney >= 0.9 yields condition met, all other cases yield condition not met.

Incoming: Determine whether this compound has fraction of imaged embryos annotated as normal kidney no lower than 0.9: C[C@@H]1C[C@H]2[C@@H]3C[C@H](F)C4=CC(=O)C=C[C@]4(C)[C@@]3(F)[C@@H](O)C[C@]2(C)[C@@]1(O)C(=O)CO
Outgoing: condition not met

Incoming: Given Cc1onc(-c2c(F)cccc2Cl)c1C(=O)N[C@@H]1C(=O)N2[C@@H]1SC(C)(C)[C@@H]2C(=O)O [Flucloxacillin sodium] , state whether its fraction of imaged embryos annotated as normal kidney is at least 0.9.
Outgoing: condition not met

Incoming: Is reported fraction of imaged embryos annotated as normal kidney greater than or equal to 0.9 here: C=CC[N@@+]12CC[C@@]34c5ccccc5N5/C=C6/[C@H]7C[C@H]8[C@@]9(CC[N@@+]8(CC=C)C/C7=C/CO)c7ccccc7N(/C=C(/[C@@H](C[C@@H]31)/C(=C\CO)C2)[C@H]54)[C@@H]69 [Alcuronium chloride]
Outgoing: condition not met

Incoming: Is reported fraction of imaged embryos annotated as normal kidney greater than or equal to 0.9 here: NC(=O)c1cc[n+](CC2=C(C(=O)[O-])N3C(=O)[C@@H](NC(=O)[C@@H](c4ccccc4)S(=O)(=O)O)[C@H]3SC2)cc1 [Cefsulodin sodium salt]
Outgoing: condition not met

Incoming: Check this compound for fraction of imaged embryos annotated as normal kidney at or above 0.9: CC(C)NC[C@H](O)COc1cccc2ccccc12 [(S)-propranolol hydrochloride]
Outgoing: condition not met

Incoming: Item c1ccc2c(CC3=NCCN3)cccc2c1 [Naphazoline hydrochloride] with fraction of imaged embryos annotated as normal kidney of 0.9 or above?
Outgoing: condition met

Incoming: Check this compound for fraction of imaged embryos annotated as normal kidney at or above 0.9: CC(C)(C)C(=O)OCOC(=O)[C@@H]1N2C(=O)[C@@H](NC(=O)[C@H](N)c3ccccc3)[C@H]2SC1(C)C
Outgoing: condition met

Incoming: Please tell me: is the compound CN(C)CC/C=C1/c2ccccc2COc2ccc(CC(=O)O)cc21 [Olopatadine hydrochloride] at or over 0.9 in terms of fraction of imaged embryos annotated as normal kidney?
Outgoing: condition not met

Incoming: Does CC[C@H](C)C(=O)O[C@H]1C[C@@H](C)C=C2C=C[C@H](C)[C@H](CC[C@@H]3C[C@@H](O)CC(=O)O3)[C@H]21 have a reported fraction of imaged embryos annotated as normal kidney of at least 0.9?
Outgoing: condition not met

Incoming: hey, is fraction of imaged embryos annotated as normal kidney for this one >= 0.9? C[C@]1(Cn2ccnn2)[C@H](C(=O)O)N2C(=O)C[C@H]2S1(=O)=O
Outgoing: condition not met

Incoming: Identify whether the reported fraction of imaged embryos annotated as normal kidney of the following compound is 0.9 or greater: CC[C@H](c1ccc(O)cc1)[C@@H](CC)c1ccc(O)cc1
Outgoing: condition not met

Incoming: Does fraction of imaged embryos annotated as normal kidney meet or surpass 0.9 for C#CCN(C)CCCOc1ccc(Cl)cc1Cl [Clorgyline hydrochloride] ?
Outgoing: condition met

Incoming: Evaluate C#C[C@]1(O)CC[C@H]2[C@@H]3CCC4=Cc5oncc5C[C@]4(C)[C@H]3CC[C@@]21C : fraction of imaged embryos annotated as normal kidney at minimum 0.9?
Outgoing: condition not met

Incoming: Identify whether the reported fraction of imaged embryos annotated as normal kidney of the following compound is 0.9 or greater: CNCCC=C1c2ccccc2C=Cc2ccccc21
Outgoing: condition not met

Incoming: API: above_or_equal(metric=fraction of imaged embryos annotated as normal kidney, cutoff=0.9) for item CC(C)(S)C(N)C(=O)O (racemic)
Outgoing: condition not met

Incoming: Say whether O=C(O)CCc1nc(-c2ccccc2)c(-c2ccccc2)o1 shows fraction of imaged embryos annotated as normal kidney of 0.9 or more.
Outgoing: condition not met

Incoming: Tell me whether fraction of imaged embryos annotated as normal kidney is at least 0.9 here: CNCCC(Oc1ccc(C(F)(F)F)cc1)c1ccccc1 (configuration not stated) [Fluoxetine hydrochloride]
Outgoing: condition not met

Incoming: Reported fraction of imaged embryos annotated as normal kidney at or above 0.9? N[C@@H](C(=O)N[C@@H]1C(=O)N2C(C(=O)O)=C(Cl)CS[C@H]12)c1ccccc1 [Cefaclor hydrate]
Outgoing: condition not met

Incoming: Is the recorded value of fraction of imaged embryos annotated as normal kidney equal to or greater than 0.9 for this compound? COc1cc(NS(=O)(=O)c2ccc(N)cc2)nc(OC)n1
Outgoing: condition met

Incoming: Tell me whether fraction of imaged embryos annotated as normal kidney is at least 0.9 here: CCCCCCNC(=O)n1cc(F)c(=O)[nH]c1=O
Outgoing: condition not met

Incoming: Entry Clc1cccc(Cl)c1NC1=NCCN1 [Clonidine hydrochloride] : is its fraction of imaged embryos annotated as normal kidney no less than 0.9?
Outgoing: condition not met

Incoming: Could you verify whether the entry O=C(CCCCCCC(=O)Nc1ccccc1)NO shows fraction of imaged embryos annotated as normal kidney of no less than 0.9?
Outgoing: condition not met

Incoming: Identify whether the reported fraction of imaged embryos annotated as normal kidney of the following compound is 0.9 or greater: CC(=O)OC[C@H]1O[C@@H]([S-])[C@H](OC(C)=O)[C@@H](OC(C)=O)[C@@H]1OC(C)=O.CCP(CC)CC.[Au+]
Outgoing: condition not met

Incoming: Reported fraction of imaged embryos annotated as normal kidney at or above 0.9? C/C(=C(\CCOP(=O)(O)O)SC(=O)c1ccccc1)N(C=O)Cc1cnc(C)nc1N
Outgoing: condition not met
